Values were extracted from ChEMBL document CHEMBL1125888.

Parameter: Relative potency. Scope: all listed entries.
- experimentalTarget: 3-hydroxy-3-methylglutaryl-coenzyme A reductase (Rattus norvegicus)
- procedureText: Relative potency against HMG-CoA reductase activity in partially purified rat liver
- Type: functional
Respond using a number only.

Illustrative cases are given below, each with its answer.
| molecule | Relative potency |
| --- | --- |
| CC(C)c1c(Cl)c(Cl)c(-c2ccc(F)cc2)n1CC[C@@H]1C[C@@H](O)CC(=O)O1 | 78.6 |
| CC(C)c1c(C(=O)OCc2ccccc2)c(-c2ccccc2)c(-c2ccc(F)cc2)n1CC[C@@H]1C[C@@H](O)CC(=O)O1 | 24 |
| CC(C)c1ccc(-c2ccc(F)cc2)n1CC[C@@H]1C[C@@H](O)CC(=O)O1 | 10.9 |
| CCOC(=O)c1c(-c2ccccc2)c(-c2ccccc2)n(CC[C@@H]2C[C@@H](O)CC(=O)O2)c1C | 0.6 |

Supply Relative potency value. Item: CC(C)c1c(C(=O)Nc2ccccc2)c(-c2ccccc2)c(-c2ccc(F)cc2)n1CC[C@@H]1C[C@@H](O)CC(=O)O1 (stereo in doubt; (+)-33)
500

Supply Relative potency value. Item: `CC[C@H](C)C(=O)O[C@H]1CCC=C2C=C[C@H](C)[C@H](CC[C@@H]3C[C@@H](O)CC(=O)O3)[C@H]21`
100

Supply Relative potency value. Item: `CCOC(=O)c1c(-c2ccc(C#N)cc2)c(-c2ccc(F)cc2)n(CC[C@@H]2C[C@@H](O)CC(=O)O2)c1C(C)C`
16.2

====

- experimentalTarget: 3-hydroxy-3-methylglutaryl-coenzyme A reductase (Rattus norvegicus, UniProt P51639)
- Sequence (P51639 whole entry): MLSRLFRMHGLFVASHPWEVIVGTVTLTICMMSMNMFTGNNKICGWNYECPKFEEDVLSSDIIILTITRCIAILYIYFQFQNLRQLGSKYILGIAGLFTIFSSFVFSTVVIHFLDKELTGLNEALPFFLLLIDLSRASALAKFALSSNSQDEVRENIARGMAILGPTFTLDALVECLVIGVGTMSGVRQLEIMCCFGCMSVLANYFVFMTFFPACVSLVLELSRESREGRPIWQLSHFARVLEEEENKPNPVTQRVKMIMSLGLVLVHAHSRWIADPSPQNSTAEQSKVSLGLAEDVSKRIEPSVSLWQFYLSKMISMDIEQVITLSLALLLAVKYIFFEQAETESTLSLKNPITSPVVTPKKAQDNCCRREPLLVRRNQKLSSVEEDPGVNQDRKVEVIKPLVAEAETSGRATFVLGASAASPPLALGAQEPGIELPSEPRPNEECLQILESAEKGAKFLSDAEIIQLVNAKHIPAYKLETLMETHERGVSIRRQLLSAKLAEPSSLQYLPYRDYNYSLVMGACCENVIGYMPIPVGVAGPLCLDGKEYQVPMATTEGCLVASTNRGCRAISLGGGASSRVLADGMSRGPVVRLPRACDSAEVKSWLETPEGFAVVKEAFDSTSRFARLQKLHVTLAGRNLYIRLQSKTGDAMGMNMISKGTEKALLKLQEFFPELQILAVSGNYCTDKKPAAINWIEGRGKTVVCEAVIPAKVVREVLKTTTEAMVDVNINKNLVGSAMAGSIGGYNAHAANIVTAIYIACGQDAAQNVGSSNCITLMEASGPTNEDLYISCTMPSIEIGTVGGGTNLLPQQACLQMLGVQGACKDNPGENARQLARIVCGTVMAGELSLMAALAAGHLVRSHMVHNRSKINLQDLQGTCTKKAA
- procedureText: Inhibition of HMG-CoA reductase activity in partially purified rat liver
measurementLabel: pIC50
Conceptually, pIC50 converts a concentration in mol/L into minus its log10.

Illustrative cases are given below, each with its answer.
| smiles | experimentalTarget | resultNumber |
| --- | --- | --- |
| CCOC(=O)c1c(-c2ccccc2)c(-c2ccccc2)n(CC[C@@H]2C[C@@H](O)CC(=O)O2)c1C(C)C | 3-hydroxy-3-methylglutaryl-coenzyme A reductase (Rattus norvegicus, UniProt P51639) | 6.77 |
| CC(C)c1cc(-c2ccccc2)c(-c2ccc(F)cc2)n1CC[C@@H]1C[C@@H](O)CC(=O)O1 | 3-hydroxy-3-methylglutaryl-coenzyme A reductase (Rattus norvegicus, UniProt P51639) | 6.46 |
| COC(=O)c1c(C(=O)OC)c(C(C)C)n(CC[C@@H]2C[C@@H](O)CC(=O)O2)c1-c1ccc(F)cc1 | 3-hydroxy-3-methylglutaryl-coenzyme A reductase (Rattus norvegicus, UniProt P51639) | 6.74 |

Look up and report measured pIC50 (3-hydroxy-3-methylglutaryl-coenzyme A reductase (Rattus norvegicus, UniProt P51639)) for the following compound: `CCOC(=O)c1c(-c2ccccc2)c(-c2ccccc2)n(CC[C@@H]2C[C@@H](O)CC(=O)O2)c1C`
5.40
